# AC50 per entry for D(3) dopamine receptor (Homo sapiens, UniProt P35462)

MOLECULE: O=c1c(O)c(-c2ccc(O)c(O)c2)oc2cc(O)cc(O)c12 [QUERCETIN]
AC50: > 30 µM
//
MOLECULE: CCOc1cc([C@@H](CS(C)(=O)=O)N2C(=O)c3cccc(NC(C)=O)c3C2=O)ccc1OC
AC50: > 30 µM
//
MOLECULE: C[C@]12C=CC(=O)C=C1CC[C@@H]1[C@@H]2CC[C@]2(C)OC(=O)CC[C@@H]12 [TESTOLACTONE]
AC50: > 30 µM
//
MOLECULE: Oc1cc(O)c(Cl)cn1
AC50: > 30 µM
//
MOLECULE: NNC(=O)c1ccncc1 [ISONIAZID]
AC50: > 30 µM
//
MOLECULE: C[C@]12C/C(=C/O)C(=O)C[C@@H]1CC[C@@H]1[C@@H]2CC[C@@]2(C)[C@H]1CC[C@]2(C)O [OXYMETHOLONE]
AC50: > 30 µM
//
MOLECULE: O=C(O)Cc1ccccc1Oc1ccc(Cl)cc1Cl [FENCLOFENAC]
AC50: > 10 µM
//
MOLECULE: CCCCCCCN(CC)CCCC(O)c1ccc(NS(C)(=O)=O)cc1 (configuration not stated) [IBUTILIDE]
AC50: 4.3 µM
//
MOLECULE: CO/N=C(\C(=O)N[C@@H]1C(=O)N2C(C(=O)O)=C(CSc3nc(=O)c(=O)[nH]n3C)CS[C@H]12)c1csc(N)n1 [CEFTRIAXONE]
AC50: > 30 µM
//
MOLECULE: S=P(N1CC1)(N1CC1)N1CC1 [THIOTEPA]
AC50: 9.9 µM
//
MOLECULE: CC1=C(C(=O)OC(C)C)C(c2cccc([N+](=O)[O-])c2)C(C(=O)OC2CN(C(c3ccccc3)c3ccccc3)C2)=C(N)N1 (configuration not stated) [AZELNIDIPINE]
AC50: > 30 µM
//
MOLECULE: CC(O)(CS(=O)(=O)c1ccc(F)cc1)C(=O)Nc1ccc(C#N)c(C(F)(F)F)c1 (configuration not stated) [BICALUTAMIDE]
AC50: > 10 µM
//
MOLECULE: CC(C)[C@H](N)C(=O)OCCOCn1cnc2c(=O)[nH]c(N)nc21 [VALACYCLOVIR]
AC50: > 10 µM
//
MOLECULE: CC(C)N(CCCCOCC(=O)O)c1cnc(-c2ccccc2)c(-c2ccccc2)n1
AC50: > 30 µM
//
MOLECULE: CO[C@H]1C[C@H](O[C@H]2CC[C@@]3(C)[C@H](CC[C@@H]4[C@@H]3CC[C@]3(C)[C@@H](C5=CC(=O)OC5)[C@@H](OC(C)=O)C[C@]43O)C2)O[C@@H](C)[C@@H]1O [OLEANDRIN]
AC50: > 30 µM
//
MOLECULE: CC(C(=O)O)c1ccc2oc(-c3ccc(Cl)cc3)nc2c1 (configuration not stated) [BENOXAPROFEN]
AC50: > 30 µM
//
MOLECULE: CNC(=C[N+](=O)[O-])NCCSCc1csc(CN(C)C)n1 [NIZATIDINE]
AC50: > 30 µM
